assay.system: NprR(ΔHTH) (B. thuringiensis strain 407)
test.summary: ITC
measurement.kind: Kd (µM)
Report the value in µM with no unit label.

Challenge: Find the recorded Kd belonging to SNPDIYG [NprX7-III (SNPDIYG)] and report it.
Response given: 0.08

Challenge: Find the recorded Kd belonging to SRPDVLT [NprX7-IV (SRPDVLT)] and report it.
Response given: 6

Challenge: Find the recorded Kd belonging to SKPDTYG [NprX7-II (SKPDTYG)] and report it.
Response given: 0.4

Challenge: Find the recorded Kd belonging to SSKPDIVG [NprX8n octapeptide SSKPDIVG] and report it.
Response given: 0.03

Challenge: Find the recorded Kd belonging to SKPDIVGQ [NprX8c SKPDIVGQ] and report it.
Response given: 1

Challenge: Find the recorded Kd belonging to YSSKPDIVG [NprX9n …] and report it.
Response given: 0.22

Challenge: Find the recorded Kd belonging to WKPDTLG [NprX7 peptide (WKPDTLG) characteristic of groups V to VII] and report it.
Response given: 3
